Tested on: CCRF-CEM leukemia
EXPERIMENT_SUMMARY: NCI-60 one-dose screen, 48 h (100 = growth as untreated, 0 = no growth, -100 = all killed)
TEST_CONTEXT: 10 µM unless noted
About 83,000 compounds went through this panel and 20% of them were active in at least one assay; those are over-represented in the sample as a whole.
Would you kindly list growth for each of these molecules?
Quick reminder: number only, in %, skip the unit.

Provide growth value for the following molecule: COc1ccc(C2C(C#N)=C(N)Oc3n[nH]c(-c4cccs4)c32)cc1I (centres undefined) 76.3

Dear colleague, please send me the reported growth for Cc1ccc2oc(=O)cc(C3c4ccc([nH]4)C(c4cc(=O)oc5ccc(C)cc45)c4ccc([nH]4)C(c4cc(=O)oc5ccc(C)cc45)c4ccc([nH]4)C(c4cc(=O)oc5ccc(C)cc45)c4ccc3[nH]4)c2c1 (centres undefined) when you can. -18

Write down growth measured for item COc1ccc(S(=O)(=O)N2CCN(C)CC2)cc1NC(=O)c1[nH]c(C)c2c1CCCCC2=O 75.5

Tell me measured growth for COc1cccc(-c2nc3sccn3c2-c2ccnc(NCCNS(=O)(=O)c3ccc(F)cc3)c2)c1 please. 14.2
